Source listed as PubChem BioAssay (NCI).

Test system: KM12 colon
assayOverview: NCI-60 one-dose screen, 48 h (100 = growth as untreated, 0 = no growth, -100 = all killed)
conditionNotes: 10 µM unless noted
Compounds without any hit were thinned out: in the full panel of roughly 83,000, 20% have a hit.
quantityKind: growth (%)
Number in %, nothing else.

Q: Fill in growth for record "COc1cc(/C=N/n2cnc3oc(-c4ccccc4)cc3c2=N)cc(CN2CCOCC2)c1O"
Result: 41.1

Q: Consider the compound "CN1CCN(c2ccc(C(=O)/C=C/c3ccc(Cl)c(C(F)(F)F)c3)cc2)CC1" and give its recorded growth.
Result: 27.3

Q: Kindly indicate its recorded growth. Item: "CC(=O)Oc1ccc(CCN2C(=O)CSC2=S)cc1"
Result: 22.3

Q: Recall and state the measured growth for Cc1ccc(NC(=O)N[C@@H](Cc2cc(F)cc(F)c2)C(=O)NC2C(=O)N3CCC[C@H]3C(=O)N3CCCC[C@H]3C(=O)N[C@@H](C)C(=O)N3C[C@H](C)C[C@H]3C(=O)O[C@H]2C)c(F)c1 (stereo partly drawn) .
Result: 38.7

Q: Using known records, supply growth for "N/C(=N\OC(=O)CSc1nc2ccccc2s1)c1ccc(Cl)cc1"
Result: 101

Q: Output growth of C[C@@H]1C[C@H]2C(=O)OCC(NC(=O)[C@H](Cc3cc(F)cc(F)c3)NC(=O)Nc3ccc(Cl)cc3F)C(=O)N3CCC[C@H]3C(=O)N3CCCC[C@H]3C(=O)N[C@@H](C)C(=O)N2C1 (stereo partly drawn)
Result: 36.1

Q: Indicate its recorded growth; the compound in question is "Cc1ccc(/C=C/CC(=O)Nc2ccc(C(=O)Nc3ccc(F)cc3N)nc2)cn1"
Result: 49.5

Q: Give reported growth value for "COc1ccc(/C=N/Nc2nc(Nc3ccccc3)nc(Nc3ccc(S(N)(=O)=O)cc3)n2)cc1"
Result: 74.4
